Study System: TDP-43 102-260 (RRM1-RRM2) (Homo sapiens, UniProt Q13148)
Sequence (Q13148 102-260): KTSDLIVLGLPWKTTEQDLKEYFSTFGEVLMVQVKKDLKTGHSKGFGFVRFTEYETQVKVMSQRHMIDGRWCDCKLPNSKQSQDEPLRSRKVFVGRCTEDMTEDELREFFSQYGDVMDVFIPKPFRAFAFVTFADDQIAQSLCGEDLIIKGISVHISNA
Procedure Summary: MST; apparent Kd; NMR: 40 mM HEPES pH 6.5, 300 mM NaCl, 4 mM DTT, 25 C, 25 uM protein; EMSA: same buffer, 25 C incubation, 6.25% PAGE 0.5x TBE at 4 C; MST and HTRF buffers not in material
Experimental Parameters: protein: recombinant; tags: His (MST: NT-647 labelled HisTDP-43; tag cleaved when needed); single strand
Reported Endpoint: pKd
Remember the convention: pKd equals -log10 of concentration in molar.

Reported pKd for UGUGUGUGUGUG (ssRNA) [(UG)6] : what is it? 7.40
